- assay.notes: Liver microsomes study, Phase I stability (HLM)
- Format: in vitro ADME, human
- conditions: human, microsomes, pH 7.4
parameter.measured: microsomal CLint at 1 μM (µL/min/mg)
Numbers only, in µL/min/mg.

# microsomal CLint at 1 μM lookup, item Cc1cnc(Nc2cnn(C3CC4CCC(C3)N4CC(F)(F)F)c2)nc1-c1ccc(C(=O)NCC#N)cc1 (stereo not shown)
1190

----------
- tgt: JAK1 (Homo sapiens, UniProt P23458)
- Construct: purchased Carna Biosciences
- Sequence (P23458 whole entry): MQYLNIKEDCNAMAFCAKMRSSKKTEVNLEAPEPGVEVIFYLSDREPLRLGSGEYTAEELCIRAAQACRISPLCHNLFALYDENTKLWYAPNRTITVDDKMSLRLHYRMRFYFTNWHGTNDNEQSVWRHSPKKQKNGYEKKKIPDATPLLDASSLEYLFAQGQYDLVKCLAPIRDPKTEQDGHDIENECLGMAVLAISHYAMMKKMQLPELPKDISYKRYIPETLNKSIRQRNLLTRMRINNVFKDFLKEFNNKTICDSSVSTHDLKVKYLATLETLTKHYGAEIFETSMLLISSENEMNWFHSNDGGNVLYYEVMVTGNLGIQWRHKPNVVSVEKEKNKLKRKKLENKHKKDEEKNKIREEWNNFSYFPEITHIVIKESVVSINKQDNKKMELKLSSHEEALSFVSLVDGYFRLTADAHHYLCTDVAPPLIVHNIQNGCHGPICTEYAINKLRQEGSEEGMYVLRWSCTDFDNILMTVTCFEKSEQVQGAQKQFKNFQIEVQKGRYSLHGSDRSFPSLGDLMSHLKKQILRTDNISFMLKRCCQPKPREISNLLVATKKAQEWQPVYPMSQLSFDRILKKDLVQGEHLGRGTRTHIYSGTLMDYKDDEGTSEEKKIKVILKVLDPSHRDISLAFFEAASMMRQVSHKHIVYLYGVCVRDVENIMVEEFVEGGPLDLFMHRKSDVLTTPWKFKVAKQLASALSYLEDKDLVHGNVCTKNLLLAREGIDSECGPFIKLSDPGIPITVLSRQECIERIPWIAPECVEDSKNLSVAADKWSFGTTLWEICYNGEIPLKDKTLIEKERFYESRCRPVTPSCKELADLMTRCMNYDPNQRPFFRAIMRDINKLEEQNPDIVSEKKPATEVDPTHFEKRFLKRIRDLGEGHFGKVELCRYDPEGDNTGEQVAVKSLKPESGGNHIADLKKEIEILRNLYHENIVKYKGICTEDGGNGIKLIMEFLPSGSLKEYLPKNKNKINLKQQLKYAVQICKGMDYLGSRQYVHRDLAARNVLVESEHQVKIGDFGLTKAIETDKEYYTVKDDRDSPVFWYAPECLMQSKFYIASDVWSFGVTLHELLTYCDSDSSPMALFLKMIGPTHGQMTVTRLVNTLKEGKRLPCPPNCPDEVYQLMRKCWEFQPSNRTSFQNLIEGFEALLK
- assay.notes: JAK1 microfluidic kinase assay (Caliper EZ Reader II, FAM labeled peptide substrate)
- Format: biochemical
- conditions: IC50 JAK1 (5 nM) (1 m MATP), JAK1 5 nM, 1 mM ATP
- Description: Compounds were tested against JAK1, JAK2, JAK2V617F and TYK2. Assay Formats: JAK activity was determined in the reaction buffer 50 mM HEPES, 0.01% Brij35, 10 mM MgCl2, 2 mM DTT by a microfluidic assay. The phosphorylation of a FAM labeled peptide substrate was monitored in the Caliper EZ Reader II (Perkin Elmer). The assay condition for each batch of enzyme (Carna Biosciences) was optimized to obtain 10% conversion rate of peptide substrate. […]
pIC50: −log10 of the molar value.
Classify by measured pIC50: TRUE if it is equal to or exceeds 8, FALSE if it is smaller.

Previously resolved entries follow.
compound="Cc1cnc(Nc2cnn(C3CCN(C)CC3)c2)nc1-c1ccc(C(=O)N2CC(C#N)C2)cc1 [Example 92]" label=FALSE
compound="Cc1cnc(Nc2cnn(C)c2)nc1-c1ccc(C(=O)NCCC#N)cc1 [Example 2]" label=FALSE
compound="CC[C@@H](C#N)NC(=O)c1ccc(-c2nc(Nc3cnn(CCO)c3)ncc2Cl)cc1 [Example 167]" label=TRUE
compound="Cc1cnc(Nc2cnn(C3CCN(S(C)(=O)=O)CC3)c2)nc1-c1ccc(C(=O)NCC2(C#N)CC2)cc1 [Example 159]" label=FALSE
compound="Cc1cnc(Nc2cnn(C3CCNCC3)c2)nc1-c1ccc(C(=O)N[C@H](C#N)C2CC2)cc1 [Example 156]" label=TRUE

Is reported pIC50 greater than or equal to 8 here: Cc1cnc(Nc2cnn(C)c2)nc1-c1ccc(C(=O)NC(C)C)cc1 [Example 223]
FALSE

Is reported pIC50 greater than or equal to 8 here: CC[C@@H](C#N)NC(=O)c1ccc(-c2nc(Nc3cnn(C(C)C(F)(F)F)c3)ncc2C)cc1 (single isomer, unassigned) [Example 226]
TRUE

Is reported pIC50 greater than or equal to 8 here: Cc1cnc(Nc2cnn(CCO)c2)nc1-c1ccc(C(=O)N[C@H](C#N)C2CC2)cc1 [Example 215]
TRUE

----------
- assay.notes: Liver microsomes study, Phase I stability (HLM)
- Type: in vitro ADME, human
- conditions: pH 7.4; human liver microsomes 0.5 mg/mL, 1 μM test article; read-out: HLM Clint
parameter.measured: log10 of microsomal CLint at 1 μM (log10 of the value in µL/min/mg)
log10 microsomal CLint at 1 μM, µL/min/mg

Example results:
smiles_input=Cc1cnc(Nc2cnn(C3CCN(C(=O)C45CC(C4)C5)CC3)c2)nc1-c1ccc(C(=O)NCC#N)cc1 data_value=2.31
smiles_input=Cn1cc(Nc2ncc(Cl)c(-c3ccc(C(=O)NCC#N)cc3)n2)cn1 data_value=1.09
smiles_input=C[C@@H](C#N)NC(=O)c1ccc(-c2nc(Nc3cnn(C4CC4)c3)ncc2C(F)F)cc1F data_value=1.03

Consider the following items and state reported log10 of microsomal CLint at 1 μM for each.
1. Cc1cnc(Nc2cnn(C3CCN(C)CC3)c2)nc1-c1ccc(C(=O)N[C@H](C#N)C2CC2)cc1
2. Cc1cnc(Nc2cnn(C3CCN(C(=O)C4CC4)CC3)c2)nc1-c1ccc(C(=O)NCC#N)nc1
3. Cc1cnc(Nc2cnn(C3CCN(C)CC3)c2)nc1-c1ccc(C(=O)N[C@H](C)C#N)cc1
4. N#CC1(CNC(=O)c2ccc(-c3nc(Nc4cnn(C5CCOCC5)c4)ncc3Cl)cc2)CC1

[1.36, 1.75, 1.03, 1.48]

Consider the following items and state reported log10 of microsomal CLint at 1 μM for each.
1. Cc1cnc(Nc2cnn(C3CC3)c2)nc1-c1ccc(C(=O)N2CC(C#N)C2)c(F)c1
2. CC[C@@H](C#N)NC(=O)c1ccc(-c2nc(Nc3cnn(C4CCNCC4)c3)ncc2Cl)cc1

1: 0.96; 2: 1.08

Consider the following items and state reported log10 of microsomal CLint at 1 μM for each.
1. Cc1cnc(Nc2cnn(C3CC3)c2)nc1-c1ccc(C(=O)NC2(C#N)CC2)cc1
2. C[C@@H](C#N)NC(=O)c1ccc(-c2nc(Nc3cnn(C4CCN(C(=O)C(C)(C)C)CC4)c3)ncc2Cl)cc1
3. COCCn1cc(Nc2ncc(Cl)c(-c3ccc(C(=O)N[C@@H](C)C#N)cc3)n2)cn1
4. CN1CCC(n2cc(Nc3ncc(Cl)c(-c4ccc(C(=O)NCC#N)cc4)n3)cn2)CC1
5. Cc1cnc(Nc2cnn(C3CCN(C)CC3)c2)nc1-c1ccc(C(=O)N[C@H](C#N)C(C)C)cc1
6. N#CC1(CNC(=O)c2ccc(-c3nc(Nc4cnn(C5CC5)c4)ncc3Cl)cc2)CC1

[1.23, 2.05, 1.59, 1.29, 1.66, 1.39]

# log10 of microsomal CLint at 1 μM lookup, item `Cc1cnc(Nc2cnn(C3CC(C)(C)OC(C)(C)C3)c2)nc1-c1ccc(C(=O)NCC#N)cc1`
2.31

----------
Assignment: determine reported pIC50 for the given compounds.
- tgt: JAK2 (Homo sapiens)
- Construct: purchased Carna Biosciences
- Sequence (O60674 whole entry): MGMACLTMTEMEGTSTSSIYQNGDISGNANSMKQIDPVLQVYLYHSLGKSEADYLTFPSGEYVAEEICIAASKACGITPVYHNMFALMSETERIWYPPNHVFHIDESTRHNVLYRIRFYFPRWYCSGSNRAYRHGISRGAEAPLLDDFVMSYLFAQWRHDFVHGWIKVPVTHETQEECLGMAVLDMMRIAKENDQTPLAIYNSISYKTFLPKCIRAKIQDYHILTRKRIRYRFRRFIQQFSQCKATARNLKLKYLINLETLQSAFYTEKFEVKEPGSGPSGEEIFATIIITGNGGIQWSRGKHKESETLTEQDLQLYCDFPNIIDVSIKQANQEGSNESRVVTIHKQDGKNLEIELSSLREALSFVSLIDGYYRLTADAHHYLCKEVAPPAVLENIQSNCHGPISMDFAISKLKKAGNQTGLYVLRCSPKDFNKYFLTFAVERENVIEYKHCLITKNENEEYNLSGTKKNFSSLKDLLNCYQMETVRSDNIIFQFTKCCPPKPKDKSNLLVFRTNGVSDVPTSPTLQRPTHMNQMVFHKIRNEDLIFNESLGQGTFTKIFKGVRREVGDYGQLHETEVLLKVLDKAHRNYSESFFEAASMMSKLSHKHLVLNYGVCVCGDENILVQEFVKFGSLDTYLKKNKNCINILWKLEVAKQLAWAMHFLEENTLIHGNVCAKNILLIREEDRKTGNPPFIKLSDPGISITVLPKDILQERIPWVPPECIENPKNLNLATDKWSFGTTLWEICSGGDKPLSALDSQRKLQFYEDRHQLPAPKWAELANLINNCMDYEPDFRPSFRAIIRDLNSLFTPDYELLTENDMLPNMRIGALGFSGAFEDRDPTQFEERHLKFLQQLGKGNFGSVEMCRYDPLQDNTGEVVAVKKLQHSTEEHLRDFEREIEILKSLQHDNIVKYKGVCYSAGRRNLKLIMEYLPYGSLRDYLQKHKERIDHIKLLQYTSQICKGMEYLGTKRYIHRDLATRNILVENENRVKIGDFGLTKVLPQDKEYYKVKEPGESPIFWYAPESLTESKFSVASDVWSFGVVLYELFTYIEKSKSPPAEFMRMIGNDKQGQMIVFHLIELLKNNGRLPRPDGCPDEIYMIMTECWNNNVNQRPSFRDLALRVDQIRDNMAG
- assay.notes: JAK2 microfluidic kinase assay (Caliper EZ Reader II, FAM labeled peptide substrate)
- Format: biochemical
- conditions: IC50 JAK2 ([…]) (Km ATP), Km ATP
Answers are plain numbers, as −log10 of the molar value.

Example results:
smiles_input=Cc1cnc(Nc2ccn(C)n2)nc1-c1ccc(C(=O)NCC#N)cc1 parameter_measured=pIC50 data_value=7.55
smiles_input=CCNC(=O)c1ccc(-c2nc(Nc3cnn(C)c3)ncc2C)cc1 parameter_measured=pIC50 data_value=6.83
smiles_input=C[C@@H](C#N)NC(=O)c1ccc(-c2nc(Nc3cnn(C)c3)ncc2Cl)cc1 parameter_measured=pIC50 data_value=8.83
smiles_input=Cn1cc(Nc2nccc(-c3ccc(C(=O)NCC#N)cc3F)n2)cn1 parameter_measured=pIC50 data_value=7.46

# next compound below
# pIC50 lookup, item `Cc1cnc(Nc2cnn(CC(F)(F)F)c2)nc1-c1ccc(C(=O)N2CC(C#N)C2)cc1`
7.78

----------
- tgt: FLT3D835Y (Homo sapiens, UniProt P36888, D835Y)
- assay.notes: FLT3D835Y microfluidic kinase assay
Assignment: determine reported log10 IC50 for the given molecules.
log10 IC50, nM

smiles_input=Cc1cnc(Nc2cnn(C)c2)nc1-c1ccc(C(=O)NC(C)C)cc1 data_value=3.45

Consider the following items and state reported log10 IC50 for each.
1. CNC(=O)c1ccc(-c2nc(Nc3cnn(C)c3)ncc2C)cc1
2. CC[C@@H](C#N)NC(=O)c1ccc(-c2nc(Nc3cnn(C4CC4)c3)ncc2Cl)cc1
3. Cn1cc(Nc2ncc(Cl)c(-c3ccc(C(=O)NCC#N)cc3)n2)cn1
4. Cc1cnc(Nc2cnn(C)c2)nc1-c1ccc(C(=O)NCC(C)(C)C#N)cc1
5. CCNC(=O)c1ccc(-c2nc(Nc3cnn(C)c3)ncc2C)cc1
6. C[C@@H](C#N)NC(=O)c1ccc(-c2nc(Nc3cnn(C4CC4)c3)ncc2Cl)cc1
7. C[C@@H](C#N)NC(=O)c1ccc(-c2nc(Nc3cnn(C)c3)ncc2Cl)cc1

3.31
1.06
1.19
1.76
3.64
1.08
1.64

# log10 IC50 lookup, item `Cc1cnc(Nc2cnn(C3CCN(C(=O)C4(C)CC4)CC3)c2)nc1-c1ccc(C(=O)NCC#N)cc1`
0.90

----------
- assay.notes: Dog pharmacokinetic study (intravenous and oral)
- Assay type: in vivo
- conditions: plasma, Beagle dogs, oral, 5 mg/kg, solution
Assignment: determine reported bioavailability for the given compounds.
Give bare numbers, in %.

Example results:
smiles_input=C[C@@H](C#N)NC(=O)c1ccc(-c2nc(Nc3cnn(C4CCNCC4)c3)ncc2Cl)cc1 parameter_measured=bioavailability data_value=0.9
smiles_input=CC[C@@H](C#N)NC(=O)c1ccc(-c2nc(Nc3cnn(C4CCNCC4)c3)ncc2Cl)cc1 parameter_measured=bioavailability data_value=0.8

Consider the following items and state reported bioavailability for each.
1. Cc1cnc(Nc2cnn(C3CCN(C(=O)CO)CC3)c2)nc1-c1ccc(C(=O)N[C@@H](C)C#N)cc1
2. CC[C@@H](C#N)NC(=O)c1ccc(-c2nc(Nc3cnn(C4CCN(C)CC4)c3)ncc2C)cc1

4.6
19.1

----------
- assay.notes: Rat pharmacokinetic study (intravenous and oral)
- Type: in vivo
- conditions: male, plasma, Sprague-Dawley rats, oral, 5 mg/kg, solution
- Procedure: Pharmacokinetic profile of test articles in rodent were evaluated in fasted male ICR mouse and Sprague-Dawley rats. […] Typically, mice were dosed with 2 mg/kg and 10 mg/kg by intravenous injection and oral gavage, respectively. […] Plasma was obtained within 1 hours of blood collection by centrifugation at 8000×g and 4° C. for 6 minutes, and then stored at −20° C. until analyzed by LCMS/MS for quantification.
parameter.measured: AUC (ng·h/mL)
Give bare numbers, in ng·h/mL.

# AUC lookup, item `Cc1cnc(Nc2cnn(C3CCN(C(=O)C4(C)CC4)CC3)c2)nc1-c1ccc(C(=O)NCC#N)cc1`
1170

Values were extracted from patent US12595253B2.
